This collection of values is drawn from ChEMBL document CHEMBL4304761.

biological target: Phosphatidylinositol 4,5-bisphosphate 3-kinase catalytic subunit gamma isoform (Homo sapiens, UniProt P48736); experiment: Inhibition of PI3K gamma (unknown origin) using lipid substrate measured after 40 mins in presence of ATP by Kinase-Glo plus reagent based luminescence assay
Sequence (P48736 whole entry, canonical isoform): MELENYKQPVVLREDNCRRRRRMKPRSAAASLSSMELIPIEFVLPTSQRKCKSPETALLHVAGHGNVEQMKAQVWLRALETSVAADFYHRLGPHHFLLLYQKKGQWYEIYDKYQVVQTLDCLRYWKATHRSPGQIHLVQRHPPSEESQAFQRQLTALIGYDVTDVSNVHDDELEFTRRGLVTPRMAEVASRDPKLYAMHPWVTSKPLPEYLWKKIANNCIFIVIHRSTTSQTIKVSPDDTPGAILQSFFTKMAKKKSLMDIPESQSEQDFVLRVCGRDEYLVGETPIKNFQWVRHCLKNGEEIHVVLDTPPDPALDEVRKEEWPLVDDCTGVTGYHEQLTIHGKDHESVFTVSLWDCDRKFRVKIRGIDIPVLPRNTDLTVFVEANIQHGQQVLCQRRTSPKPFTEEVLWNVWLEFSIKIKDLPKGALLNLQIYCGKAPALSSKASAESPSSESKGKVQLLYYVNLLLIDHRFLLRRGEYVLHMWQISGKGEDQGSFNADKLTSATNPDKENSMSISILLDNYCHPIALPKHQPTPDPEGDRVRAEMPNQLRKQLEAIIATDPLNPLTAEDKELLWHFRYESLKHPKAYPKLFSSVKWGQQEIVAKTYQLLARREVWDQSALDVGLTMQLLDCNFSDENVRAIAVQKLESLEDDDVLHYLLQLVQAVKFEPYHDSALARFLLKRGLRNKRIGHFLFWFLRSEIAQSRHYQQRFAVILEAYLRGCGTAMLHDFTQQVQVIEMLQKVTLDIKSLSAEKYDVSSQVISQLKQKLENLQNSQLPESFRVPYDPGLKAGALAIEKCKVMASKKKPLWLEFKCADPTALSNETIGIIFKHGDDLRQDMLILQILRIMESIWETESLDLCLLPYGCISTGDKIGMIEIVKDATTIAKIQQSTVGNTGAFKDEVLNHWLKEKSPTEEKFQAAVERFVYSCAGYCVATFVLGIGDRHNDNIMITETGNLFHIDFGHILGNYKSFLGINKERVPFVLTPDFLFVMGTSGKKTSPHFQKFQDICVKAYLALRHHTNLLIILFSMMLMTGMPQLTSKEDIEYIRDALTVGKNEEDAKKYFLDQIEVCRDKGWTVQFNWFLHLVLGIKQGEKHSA
pIC50: −log10 of the molar value.
parameter: pIC50

smiles.str | pIC50
COc1ncc(-c2ccc3ncnc(NCCN4CCOCC4)c3c2)cc1NS(C)(=O)=O | 8.22
COc1ncc(-c2ccc3ncnc(N[C@H]4CCN(C(=O)C5CCOCC5)C4)c3c2)cc1NS(C)(=O)=O | 8.19
COc1ncc(-c2ccc3ncnc(N[C@H]4CCN(C(C)=O)C4)c3c2)cc1NS(C)(=O)=O | 8.37

---

biological target: Phosphatidylinositol 4,5-bisphosphate 3-kinase catalytic subunit alpha isoform (Homo sapiens, UniProt P42336); test: Inhibition of PI3K alpha (unknown origin) using lipid substrate measured after 40 mins in presence of ATP by Kinase-Glo plus reagent based luminescence assay
Sequence (P42336 whole entry, canonical isoform): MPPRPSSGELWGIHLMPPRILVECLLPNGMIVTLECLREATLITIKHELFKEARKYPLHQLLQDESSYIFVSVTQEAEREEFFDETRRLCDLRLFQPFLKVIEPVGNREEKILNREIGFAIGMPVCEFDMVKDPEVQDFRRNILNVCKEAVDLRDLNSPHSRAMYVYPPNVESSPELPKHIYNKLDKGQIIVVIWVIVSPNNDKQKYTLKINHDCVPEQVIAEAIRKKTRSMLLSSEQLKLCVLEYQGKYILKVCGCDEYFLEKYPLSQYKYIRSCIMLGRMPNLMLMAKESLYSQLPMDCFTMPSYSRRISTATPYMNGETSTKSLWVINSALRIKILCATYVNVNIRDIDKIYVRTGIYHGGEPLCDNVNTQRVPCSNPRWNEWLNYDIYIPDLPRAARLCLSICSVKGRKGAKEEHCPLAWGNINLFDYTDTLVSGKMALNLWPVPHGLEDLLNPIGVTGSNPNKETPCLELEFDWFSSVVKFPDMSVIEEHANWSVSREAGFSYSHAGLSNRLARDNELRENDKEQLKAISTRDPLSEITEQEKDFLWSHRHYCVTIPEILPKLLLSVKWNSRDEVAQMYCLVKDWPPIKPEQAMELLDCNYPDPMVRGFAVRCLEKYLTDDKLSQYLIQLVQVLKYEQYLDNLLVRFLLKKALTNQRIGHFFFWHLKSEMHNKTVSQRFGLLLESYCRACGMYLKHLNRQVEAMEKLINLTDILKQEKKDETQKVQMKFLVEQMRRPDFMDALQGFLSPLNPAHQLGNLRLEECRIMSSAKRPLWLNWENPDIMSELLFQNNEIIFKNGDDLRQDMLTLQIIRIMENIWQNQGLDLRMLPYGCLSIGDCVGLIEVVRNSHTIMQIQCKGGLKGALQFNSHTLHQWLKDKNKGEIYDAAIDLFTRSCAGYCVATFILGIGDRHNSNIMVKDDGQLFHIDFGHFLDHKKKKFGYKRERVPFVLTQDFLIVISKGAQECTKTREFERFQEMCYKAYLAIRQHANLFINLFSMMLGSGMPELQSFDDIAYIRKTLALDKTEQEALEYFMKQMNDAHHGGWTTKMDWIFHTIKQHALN
pIC50: −log10 of the molar value.
parameter: pIC50

Completed entries (count: 3):
smiles.str | parameter | experimental.value
COc1ncc(-c2ccc3ncnc(N[C@H]4CCN(C(=O)OC(C)(C)C)C4)c3c2)cc1NS(C)(=O)=O | pIC50 | 8.28
COc1ncc(-c2ccc3ncnc(NCCN4CCCCC4)c3c2)cc1NS(=O)(=O)C1CC1 | pIC50 | 7.47
COc1ncc(-c2ccc3ncnc(NCCN4CCCCC4)c3c2)cc1NS(C)(=O)=O | pIC50 | 7.92

1. COc1ncc(-c2ccc3ncnc(NC4CCN(C(C)=O)CC4)c3c2)cc1NS(C)(=O)=O
2. COc1ncc(-c2ccc3nccc(NCCN4CCOCC4)c3c2)cc1NS(C)(=O)=O
Asked: Form field 'greater pIC50' accepts 1 or 2 ; which applies? State the label of the item chosen.
Given back: 1

A. COc1ncc(-c2ccc3ncnc(NCCN(C)C)c3c2)cc1NS(C)(=O)=O
B. COc1ncc(-c2ccc3ncnc(NC4CCN(C(=O)C5CCOCC5)CC4)c3c2)cc1NS(C)(=O)=O
Asked: Given the listed records, identify the one among A and B with higher pIC50. State the label of the item chosen.
Given back: B
(B: 8.68, A: 8.15)

A. COc1ncc(-c2ccc3ncnc(N[C@H]4CCN(C(=O)C(C)(C)C)C4)c3c2)cc1NS(C)(=O)=O
B. COc1ncc(-c2ccc3ncnc(NC4CCN(C(=O)OC(C)(C)C)CC4)c3c2)cc1NS(C)(=O)=O
Asked: Compare pIC50: is it lower for A or for B ? Answer = label.
Given back: B

---

system: HCT-116; experiment: Antiproliferative activity against human HCT116 cells harboring PIK3CA mutant H1047R measured after 72 hrs by MTT assay; type: functional, cell-based; conditions: HCT-116, 72 h
parameter: IC50 (µM)

Look over these answered cases.
molecule | study.system | unit | IC50
COc1ncc(-c2ccc3ncnc(N[C@H]4CCN(C(C)=O)C4)c3c2)cc1NS(C)(=O)=O | HCT-116 | µM | 0.29
COc1ncc(-c2ccc3ncnc(N[C@H]4CCN(C(=O)OC(C)(C)C)C4)c3c2)cc1NS(C)(=O)=O | HCT-116 | µM | 0.25
COc1ncc(-c2ccc3ncnc(NCCN4CCOCC4)c3c2)cc1NS(C)(=O)=O | HCT-116 | µM | 0.82
COc1ncc(-c2ccc3ncnc(N[C@H]4CCN(C(=O)C(C)(C)C)C4)c3c2)cc1NS(C)(=O)=O | HCT-116 | µM | 2
COc1ncc(-c2ccc3ncnc(NCCN4CCCCC4)c3c2)cc1NS(C)(=O)=O | HCT-116 | µM | 1.6

a. COc1ncc(-c2ccc3ncnc(NC4CCN(C(=O)C5CCCC5)CC4)c3c2)cc1NS(C)(=O)=O
b. COc1ncc(-c2ccc3ncnc(NC4CCN(C(C)=O)CC4)c3c2)cc1NS(C)(=O)=O
Asked: Smaller IC50 value? Options are a and b Please reply using the label of the selected record.
Given back: b
